# Tested on: FG2
# ASSAY_SUMMARY: Cytotoxicity against human pancreatic carcinoma FG2 cell line by MTT assay at 100 uM
# Format: functional
If the reported Activity equals or exceeds 90%, assign Met. If not, assign Not met.

1) COc1ccc(-c2cn(-c3cc(OC)cc(OC)c3)nn2)cc1 Met
2) Oc1ccc(-c2cn(-c3cc(O)cc(O)c3)nn2)cc1 Met
3) COc1ccc(-c2cn(-c3cc(O)cc(O)c3)nn2)cc1 Not met
4) Oc1ccc(/C=C/c2cc(O)cc(O)c2)cc1 Not met

* * *

# Tested on: MDA-MB-231
# ASSAY_SUMMARY: Cytotoxicity against breast cancer MDA-MB-231 cell line by MTT assay at 100 uM
# Format: functional, Homo sapiens
If the reported Activity equals or exceeds 90%, assign TRUE. If not, assign FALSE.

1. COc1ccc(-c2cn(-c3cc(O)cc(O)c3)nn2)cc1 FALSE
2. COc1ccc(-c2cn(-c3cc(OC)cc(OC)c3)nn2)cc1 TRUE
3. Oc1ccc(-c2cn(-c3cc(O)cc(O)c3)nn2)cc1 TRUE
4. Oc1ccc(/C=C/c2cc(O)cc(O)c2)cc1 FALSE
5. Oc1ccc(-n2cc(-c3cc(O)cc(O)c3)nn2)cc1 TRUE
6. COc1ccc(-n2cc(-c3cc(OC)cc(OC)c3)nn2)cc1 TRUE
